# target.of.assay: human GPR119 (Homo sapiens)
# Sequence (Q8TDV5 1-308 limits assumed): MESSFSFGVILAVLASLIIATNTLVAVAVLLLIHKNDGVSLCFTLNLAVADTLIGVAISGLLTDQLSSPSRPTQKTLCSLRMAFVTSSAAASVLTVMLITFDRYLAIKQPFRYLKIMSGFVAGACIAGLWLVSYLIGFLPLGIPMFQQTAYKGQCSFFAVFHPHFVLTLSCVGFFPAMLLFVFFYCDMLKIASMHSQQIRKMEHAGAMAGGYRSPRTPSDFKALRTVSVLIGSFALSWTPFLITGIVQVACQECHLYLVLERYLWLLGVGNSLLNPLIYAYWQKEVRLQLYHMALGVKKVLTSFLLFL
# experimental.details: Measurement of GPR119 signaling (cAMP assay; LANCE kit or HTRF) in HEK293 cells stably transfected with human GPR119
# condition.set: agonist-stimulated cAMP in HEK293 cells expressing human GPR119
EC50: recorded values

# structure.smiles, target.of.assay, EC50
data = [
    ("CCc1cnc(N2CCC([C@H]3C[C@H]3COCc3ccc(-c4ccnnc4)c(F)c3)CC2)nc1", "human GPR119 (Homo sapiens)", "1 nM"),
    ("CCc1cnc(N2CCC([C@H]3C[C@H]3COCc3ccc(-n4ccnn4)cc3)CC2)nc1", "human GPR119 (Homo sapiens)", "0.3 nM"),
    ("CC(C)(C)OC(=O)N1CCC([C@H]2C[C@H]2COCc2ccc(S(=O)(=O)CCO)cc2F)CC1", "human GPR119 (Homo sapiens)", "7.1 nM"),
    ("O=S(=O)(CCO)c1ccc(COC[C@@H]2C[C@@H]2C2CCN(c3ncc(-c4ccoc4)cn3)CC2)c(F)c1", "human GPR119 (Homo sapiens)", "3.8 nM"),
    ("COCc1noc(N2CCC([C@H]3C[C@H]3COCc3ccc(-n4cnnn4)cc3F)CC2)n1", "human GPR119 (Homo sapiens)", "9.8 nM"),
    ("CS(=O)(=O)c1ccc(COC[C@@H]2C[C@@H]2C2CCN(c3ncc(F)cn3)CC2)cc1", "human GPR119 (Homo sapiens)", "5.8 nM"),
    ("CCc1cnc(N2CCC([C@H]3C[C@H]3COCc3ccc(S(=O)(=O)CCO)cc3F)CC2)nc1", "human GPR119 (Homo sapiens)", "21 nM"),
]

----------
# target.of.assay: human GPR119 (Homo sapiens)
# experimental.details: Measurement of GPR119 signaling (cAMP assay; LANCE kit or HTRF) in HEK293 cells stably transfected with human GPR119
# condition.set: agonist-stimulated cAMP in HEK293 cells expressing human GPR119
# Protocol: Measurement of GPR119 Signaling Using LANCE 384-Well cAMP Kit The adenylate cyclase assay was constructed following the LANCE™ cAMP Kit (Perkin Elmer, AD0264) instructions. […] Fluorescence at 665 nm was measured using a PHERAstar instrument. Basal activity was determined using a DMSO control and maximum response was defined as cAMP stimulation produced by an internal agonist control. Standard cAMP concentrations were assayed concurrently for conversion of fluorescence signal to cAMP level. […]
Please note: EC50 exactly at 2 nM is N. Only values below 2 nM get Y.

# molecule, assigned.class
rows = [
    ("CS(=O)(=O)c1ccc(COC[C@@H]2C[C@@H]2C2CCN(c3ncc(Br)cn3)CC2)c(F)c1 [Example 70]", "Y"),
    ("CCc1cnc(N2CCC([C@H]3C[C@H]3COCc3ccc(-c4ccc(C)nn4)cc3F)CC2)nc1 [Example 100]", "Y"),
    ("CCc1cnc(N2CCC([C@H]3C[C@H]3COCc3ccc(-n4cnnn4)cc3)CC2)nc1 [Example 61]", "Y"),
    ("O=S(=O)(CCO)c1ccc(COC[C@@H]2C[C@@H]2C2CCN(c3ncc(Cl)cn3)CC2)c(F)c1 [Example 80]", "N"),
    ("CC(C)OC(=O)N1CCC([C@H]2C[C@H]2COCc2ccc(S(C)(=O)=O)c(F)c2)CC1 [Example 42]", "N"),
    ("CC(O)CS(=O)(=O)c1ccc(COC[C@@H]2C[C@@H]2C2CCN(c3ncc(F)cn3)CC2)c(F)c1 (stereo partly shown) [Example 96]", "N"),
]

----------
# target.of.assay: human GPR119 (Homo sapiens, UniProt Q8TDV5)
# Sequence (Q8TDV5 1-308 limits assumed): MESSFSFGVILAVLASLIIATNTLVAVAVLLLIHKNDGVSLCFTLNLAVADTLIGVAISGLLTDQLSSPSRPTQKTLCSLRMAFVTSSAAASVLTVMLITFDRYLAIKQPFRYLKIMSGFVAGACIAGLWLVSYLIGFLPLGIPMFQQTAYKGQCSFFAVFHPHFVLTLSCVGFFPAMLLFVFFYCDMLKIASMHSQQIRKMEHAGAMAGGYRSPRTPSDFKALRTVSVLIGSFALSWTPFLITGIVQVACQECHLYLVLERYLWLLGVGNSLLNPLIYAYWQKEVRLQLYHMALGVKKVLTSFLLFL
# experimental.details: Measurement of GPR119 signaling (cAMP assay; LANCE kit or HTRF) in HEK293 cells stably transfected with human GPR119
# condition.set: agonist-stimulated cAMP in HEK293 cells expressing human GPR119
pEC50: −log10 of the molar value.

# compound, pEC50
rows = [
    ("CCc1cnc(N2CCC([C@H]3C[C@H]3COCc3ccc(-c4cnc(C)s4)cc3F)CC2)nc1", 8.40),
    ("CC(O)CS(=O)(=O)c1ccc(COC[C@@H]2C[C@@H]2C2CCN(C(=O)OC(C)(C)C)CC2)cc1 (stereo partly shown)", 8.02),
    ("CC(O)CS(=O)(=O)c1ccc(COC[C@@H]2C[C@@H]2C2CCN(c3ncc(Br)cn3)CC2)c(F)c1 (stereo partly shown)", 8.80),
    ("CS(=O)(=O)c1ccc(COC[C@@H]2C[C@@H]2C2CCN(c3ncc(F)cn3)CC2)c(F)c1", 8.62),
    ("COC(C)c1cnc(N2CCC([C@H]3C[C@H]3COCc3ccc(S(C)(=O)=O)c(F)c3)CC2)nc1 (single isomer, unassigned) [Example 130]", 9.14),
    ("CC(C)c1noc(N2CCC([C@H]3C[C@H]3COCc3ccc(S(C)(=O)=O)c(F)c3)CC2)n1", 9.70),
    ("CS(=O)(=O)c1ccc(COC[C@@H]2C[C@@H]2C2CCN(c3ncc(F)cn3)CC2)nc1", 7.68),
]

----------
# target.of.assay: human GPR119 (Homo sapiens, UniProt Q8TDV5)
# experimental.details: Measurement of GPR119 signaling (cAMP assay; LANCE kit or HTRF) in HEK293 cells stably transfected with human GPR119
# condition.set: agonist-stimulated cAMP in HEK293 cells expressing human GPR119
experimental.readout: log10 EC50 (log10 of the value in nM)

# compound, target.of.assay, experimental.readout, value.measured
rows = [
    ("CC1(OC(=O)N2CCC([C@H]3C[C@H]3COCc3ccc(S(C)(=O)=O)c(F)c3)CC2)CC1", "human GPR119 (Homo sapiens, UniProt Q8TDV5)", "log10 EC50", 0.67),
    ("COCc1cnc(N2CCC([C@H]3C[C@H]3COCc3ccc(CC(=O)N4CCOCC4)cc3F)CC2)nc1", "human GPR119 (Homo sapiens, UniProt Q8TDV5)", "log10 EC50", 0.51),
    ("COCc1cnc(N2CCC([C@H]3C[C@H]3COCc3ccc(CC(=O)N4CC(F)C4)cc3F)CC2)nc1", "human GPR119 (Homo sapiens, UniProt Q8TDV5)", "log10 EC50", 0.55),
    ("CCc1cnc(N2CCC([C@H]3C[C@H]3COCc3ccc(-c4ccnc(OC)n4)cc3F)CC2)nc1", "human GPR119 (Homo sapiens, UniProt Q8TDV5)", "log10 EC50", 0.46),
    ("CS(=O)(=O)c1ccc(COC[C@@H]2C[C@@H]2C2CCN(c3ncc(Br)cn3)CC2)nc1", "human GPR119 (Homo sapiens, UniProt Q8TDV5)", "log10 EC50", 0.00),
    ("CC(C)c1noc(N2CCC([C@H]3C[C@H]3COCc3ccc(-n4cnnn4)cc3F)CC2)n1", "human GPR119 (Homo sapiens, UniProt Q8TDV5)", "log10 EC50", 0.23),
    ("COC(=O)c1cnc(N2CCC([C@H]3C[C@H]3COCc3ccc(S(C)(=O)=O)cc3)CC2)nc1", "human GPR119 (Homo sapiens, UniProt Q8TDV5)", "log10 EC50", 1.30),
    ("CCc1cnc(N2CCC([C@H]3C[C@H]3COCc3ccc(-n4cnnn4)cn3)CC2)nc1", "human GPR119 (Homo sapiens, UniProt Q8TDV5)", "log10 EC50", 0.75),
    ("COC1CN(C(=O)Cc2ccc(COC[C@@H]3C[C@@H]3C3CCN(c4nc(C(C)C)no4)CC3)c(F)c2)C1", "human GPR119 (Homo sapiens, UniProt Q8TDV5)", "log10 EC50", 0.34),
    ("O=C(c1ccc(COC[C@@H]2C[C@@H]2C2CCN(c3ncc(Cl)cn3)CC2)cc1F)C1CC1", "human GPR119 (Homo sapiens, UniProt Q8TDV5)", "log10 EC50", 0.57),
    ("COC(C)c1cnc(N2CCC([C@H]3C[C@H]3COCc3ccc(S(C)(=O)=O)cc3F)CC2)nc1 (single isomer, unassigned) [Example 126]", "human GPR119 (Homo sapiens, UniProt Q8TDV5)", "log10 EC50", 0.18),
    ("COCc1noc(N2CCC([C@H]3C[C@H]3COCc3ccc(CC(=O)N4CCC4)c(F)c3)CC2)n1", "human GPR119 (Homo sapiens, UniProt Q8TDV5)", "log10 EC50", 1.06),
    ("CC(C)c1noc(N2CCC([C@H]3C[C@H]3COCc3ccc(S(=O)(=O)C4CC4)cc3)CC2)n1", "human GPR119 (Homo sapiens, UniProt Q8TDV5)", "log10 EC50", 1.26),
    ("COC(C)c1cnc(N2CCC([C@H]3C[C@H]3COCc3ccc(S(C)(=O)=O)cc3F)CC2)nc1 (single isomer, unassigned) [Example 125]", "human GPR119 (Homo sapiens, UniProt Q8TDV5)", "log10 EC50", -0.44),
]
